# Tested on: Escherichia coli TOP10
# measurement protocol: shrunken log2 fold change of peptide-encoding DNA abundance (4.5 h post-induction vs induction); higher = less antimicrobial activity (less host growth inhibition)
# condition: time post-induction: 4.5 h; library: site-saturation at positions 5, 18, 19, 20
assay readout: shrunken log2 fold change
Numbers only.

Please review the entries below; each comes with its answer.
residue sequence	shrunken log2 fold change
RRIRMRPPRLPRPRPRPWKFPRP	0.0673
RRIRQRPPRLPRPRPRPKAAPRP	-0.0496
RRIRVRPPRLPRPRPRPFLAPRP	-0.219

List reported shrunken log2 fold change for each of these sequences:
1. RRIRNRPPRLPRPRPRPRVKPRP
2. RRIRTRPPRLPRPRPRPEHPPRP
3. RRIRPRPPRLPRPRPRPWCYPRP
4. RRIRHRPPRLPRPRPRPFCVPRP

1. 0.139
2. 0.716
3. -0.143
4. -0.312

List reported shrunken log2 fold change for each of these sequences:
1. RRIRRRPPRLPRPRPRPIQMPRP
2. RRIRFRPPRLPRPRPRPERGPRP
3. RRIRLRPPRLPRPRPRPAFNPRP

1: 0.272; 2: 0.0525; 3: -0.189

List reported shrunken log2 fold change for each of these sequences:
1. RRIRLRPPRLPRPRPRPTKIPRP
2. RRIRVRPPRLPRPRPRPQQAPRP
3. RRIRHRPPRLPRPRPRPKGMPRP
4. RRIRGRPPRLPRPRPRPTHFPRP
5. RRIRARPPRLPRPRPRPYVVPRP

1. 0.0747
2. -0.0616
3. -0.448
4. 0.71
5. -0.623

List reported shrunken log2 fold change for each of these sequences:
1. RRIRSRPPRLPRPRPRPHWNPRP
2. RRIRYRPPRLPRPRPRPRFVPRP
3. RRIRLRPPRLPRPRPRPGEPPRP
4. RRIRLRPPRLPRPRPRPPVPPRP
5. RRIRRRPPRLPRPRPRPGVNPRP
6. RRIRKRPPRLPRPRPRPSERPRP
7. RRIRLRPPRLPRPRPRPHWCPRP
8. RRIRNRPPRLPRPRPRPQVEPRP

1: -0.429; 2: -1.02; 3: -0.0262; 4: 0.374; 5: -0.271; 6: 0.317; 7: -0.0751; 8: 0.0172

---

Field: shrunken log2 fold change. Provide a value for each of the sequences that follow.
# Tested on: Escherichia coli TOP10
# measurement protocol: shrunken log2 fold change of peptide-encoding DNA abundance (4.5 h post-induction vs induction); higher = less antimicrobial activity (less host growth inhibition)
# condition: time post-induction: 4.5 h; library: site-saturation at positions 5, 18, 19, 20
One number for each entry.

Please review the entries below; each comes with its answer.
residue sequence	system	shrunken log2 fold change
RRIRQRPPRLPRPRPRPAKCPRP	Escherichia coli TOP10	0.0161
RRIRQRPPRLPRPRPRPTQFPRP	Escherichia coli TOP10	0.14
RRIRARPPRLPRPRPRPHSEPRP	Escherichia coli TOP10	-0.0859

List reported shrunken log2 fold change for each of these sequences:
1. RRIRGRPPRLPRPRPRPEFQPRP
2. RRIRIRPPRLPRPRPRPNKSPRP
3. RRIRFRPPRLPRPRPRPWYVPRP
4. RRIRTRPPRLPRPRPRPARYPRP
5. RRIRTRPPRLPRPRPRPVEQPRP

[0.226, -0.919, -0.757, 0.189, 0.112]

---

# Tested on: Escherichia coli TOP10
# measurement protocol: shrunken log2 fold change of peptide-encoding DNA abundance (4.5 h post-induction vs induction); higher = less antimicrobial activity (less host growth inhibition)
# condition: time post-induction: 4.5 h; library: site-saturation at positions 5, 18, 19, 20
assay readout: shrunken log2 fold change
Numbers only.

residue sequence	system	shrunken log2 fold change
RRIRWRPPRLPRPRPRPCVQPRP	Escherichia coli TOP10	2.8

List reported shrunken log2 fold change for each of these sequences:
1. RRIRTRPPRLPRPRPRPCKNPRP
2. RRIRFRPPRLPRPRPRPKDLPRP
3. RRIRARPPRLPRPRPRPEDYPRP
4. RRIRTRPPRLPRPRPRPEKSPRP
5. RRIRGRPPRLPRPRPRPANCPRP
6. RRIRPRPPRLPRPRPRPDYYPRP

-0.33
0.0796
-0.0332
0.288
0.147
-0.346

List reported shrunken log2 fold change for each of these sequences:
1. RRIRCRPPRLPRPRPRPWCLPRP
2. RRIRPRPPRLPRPRPRPWYHPRP

[-0.339, -0.516]

---

Field: shrunken log2 fold change. Provide a value for each of the sequences that follow.
# System: Escherichia coli TOP10
# measurement protocol: shrunken log2 fold change of peptide-encoding DNA abundance (4.5 h post-induction vs induction); higher = less antimicrobial activity (less host growth inhibition)
# condition: time post-induction: 4.5 h; library: site-saturation at positions 5, 18, 19, 20

List reported shrunken log2 fold change for each of these sequences:
1. RRIRMRPPRLPRPRPRPMRDPRP
2. RRIRARPPRLPRPRPRPDRMPRP
3. RRIRPRPPRLPRPRPRPASVPRP
4. RRIRNRPPRLPRPRPRPHFEPRP
5. RRIRWRPPRLPRPRPRPFLMPRP
6. RRIRERPPRLPRPRPRPLRKPRP
7. RRIRRRPPRLPRPRPRPRCGPRP
8. RRIRDRPPRLPRPRPRPYIVPRP

1.3
0.0124
0.185
0.066
-0.115
0.722
0.474
0.0363

List reported shrunken log2 fold change for each of these sequences:
1. RRIRGRPPRLPRPRPRPRQFPRP
2. RRIRHRPPRLPRPRPRPEEEPRP

0.354
-0.0106

List reported shrunken log2 fold change for each of these sequences:
1. RRIRPRPPRLPRPRPRPQWLPRP
2. RRIRYRPPRLPRPRPRPRGMPRP
3. RRIRERPPRLPRPRPRPIMGPRP
4. RRIRFRPPRLPRPRPRPSVSPRP

[-0.0256, -0.019, -0.21, -0.2]

List reported shrunken log2 fold change for each of these sequences:
1. RRIRMRPPRLPRPRPRPIQVPRP
2. RRIRHRPPRLPRPRPRPYYHPRP

1. -0.00663
2. -0.339

List reported shrunken log2 fold change for each of these sequences:
1. RRIRWRPPRLPRPRPRPIWIPRP
2. RRIRQRPPRLPRPRPRPRMNPRP
3. RRIRCRPPRLPRPRPRPPYGPRP
4. RRIRDRPPRLPRPRPRPPVMPRP
5. RRIRARPPRLPRPRPRPTLPPRP
6. RRIRIRPPRLPRPRPRPREFPRP
7. RRIRGRPPRLPRPRPRPPYWPRP
8. RRIRPRPPRLPRPRPRPGHAPRP

[-0.186, -0.15, -0.266, -0.435, 0.263, 0.0231, 0.355, 0.461]

List reported shrunken log2 fold change for each of these sequences:
1. RRIRFRPPRLPRPRPRPMWSPRP
2. RRIRGRPPRLPRPRPRPFRMPRP
3. RRIRVRPPRLPRPRPRPAKGPRP
4. RRIRNRPPRLPRPRPRPLMWPRP
5. RRIRYRPPRLPRPRPRPQKAPRP
6. RRIRYRPPRLPRPRPRPCTPPRP
7. RRIRPRPPRLPRPRPRPYLAPRP

-0.227
0.00538
-0.283
-0.175
-0.0304
-1.14
-0.528

What value of shrunken log2 fold change on Escherichia coli TOP10 does `RRIRKRPPRLPRPRPRPYTVPRP` have?
-0.0362

---

# Tested on: Escherichia coli TOP10
# measurement protocol: shrunken log2 fold change of peptide-encoding DNA abundance (4.5 h post-induction vs induction); higher = less antimicrobial activity (less host growth inhibition)
# condition: time post-induction: 4.5 h; library: site-saturation at positions 5, 18, 19, 20
Tag: true if measured shrunken log2 fold change is not below 0.2, false if it is.

residue sequence	qualitative label
RRIRCRPPRLPRPRPRPTNYPRP	true
RRIRGRPPRLPRPRPRPGGPPRP	true
RRIRMRPPRLPRPRPRPENPPRP	true
RRIRKRPPRLPRPRPRPTCEPRP	true
RRIRERPPRLPRPRPRPRWSPRP	false
RRIRFRPPRLPRPRPRPTWLPRP	true
RRIRVRPPRLPRPRPRPMHKPRP	false
RRIRMRPPRLPRPRPRPHWDPRP	false
RRIRYRPPRLPRPRPRPLLHPRP	false
RRIRRRPPRLPRPRPRPSDSPRP	false

API: the following record is the query input.
Reported shrunken log2 fold change at or above 0.2? `RRIRARPPRLPRPRPRPSIPPRP`
false

---

Field: shrunken log2 fold change. Provide a value for each of the sequences that follow.
# System: Escherichia coli TOP10;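 further: peptides expressed intracellularly from a pBAD plasmid library in pooled LB shake-flask culture, induced with 0.3% L-arabinose, DNA abundance read by NGS, three biological replicates, DESeq2 with apeglm shrinkage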
# measurement protocol: shrunken log2 fold change of peptide-encoding DNA abundance (4.5 h post-induction vs induction); higher = less antimicrobial activity (less host growth inhibition)
# condition: time post-induction: 4.5 h; library: site-saturation at positions 5, 18, 19, 20
Answers are plain numbers.

residue sequence	shrunken log2 fold change
RRIRARPPRLPRPRPRPWVMPRP	-0.156
RRIRTRPPRLPRPRPRPTVSPRP	0.077
RRIRLRPPRLPRPRPRPPKLPRP	0.252

List reported shrunken log2 fold change for each of these sequences:
1. RRIRYRPPRLPRPRPRPRCMPRP
2. RRIRMRPPRLPRPRPRPWNNPRP
3. RRIRSRPPRLPRPRPRPTETPRP
4. RRIRKRPPRLPRPRPRPRGIPRP
5. RRIRRRPPRLPRPRPRPYPVPRP

1: -0.425; 2: -0.964; 3: 0.0721; 4: 0.0697; 5: 0.0514
